Each recorded value in this set is attributed to ChEMBL document CHEMBL5380795.

What MIC was measured for each of the following?
tested on: Pseudomonas aeruginosa; assay: Antibacterial activity against carbapenem resistant Pseudomonas aeruginosa clinical isolate 19-3 assessed as inhibition of bacterial growth incubated for 18 to 24 hrs by broth microdilution method; assay type: functional; conditions: time 18-24 hrs

| SMILES ENTRY | MIC |
| --- | --- |
| CC(C)C[C@@H]1NC(=O)[C@@H](CC(C)C)NC(=O)[C@H](CCN)NC(=O)[C@@H](NC(=O)[C@@H](CCN)NC(=O)CCCCCC(C)(C)C)CCNC(=O)[C@H]([C@@H](C)O)NC(=O)[C@H](CCN)NC(=O)[C@H](CCN)NC1=O | 8 µg/mL |

Consider the additional compound presented here.
Asked: Can you share its MIC? I mean this compound: "CCCCCCCCCC(=O)N[C@H](CCN)C(=O)N[C@H]1CCNC(=O)[C@H](CC(C)C)NC(=O)[C@H](CCN)NC(=O)[C@H](CCN)NC(=O)[C@H](Cc2ccccc2)NC(=O)[C@@H](Cc2ccccc2)NC(=O)[C@H](CCN)NC1=O"
Given back: 4 µg/mL

###

test: Cytotoxicity against human HK-2 cells assessed as inhibition of cell growth incubated for 72 hrs by CCK-8 assay; type: toxicity, cell-based
MEASURED ENDPOINT: IC50 at 72 h (µg/mL)
Give bare numbers, in µg/mL.

| SMILES ENTRY | IC50 at 72 h / µg/mL |
| --- | --- |
| CCCCCCCCCC(=O)N[C@H](CCN)C(=O)N[C@H]1CCNC(=O)[C@H]([C@@H](C)O)NC(=O)[C@H](CCN)NC(=O)[C@H](CCN)NC(=O)[C@H](CC(C)C)NC(=O)[C@@H](Cc2ccc(N)cc2)NC(=O)[C@H](CCN)NC1=O | 228 |
| CC(C)C[C@@H]1NC(=O)[C@@H](CC(C)C)NC(=O)[C@H](CCN)NC(=O)[C@@H](NC(=O)[C@@H](CCN)NC(=O)CCCCCc2ccccc2)CCNC(=O)[C@H]([C@@H](C)O)NC(=O)[C@H](CCN)NC(=O)[C@H](CCN)NC1=O | 309 |

Hi! Can you tell me IC50 at 72 h for each of these compounds?
1. CCCCCCC[C@@H](O)CC(=O)N[C@@H](CCN)C(=O)N[C@H](CCN)C(=O)N[C@H]1CCNC(=O)[C@H](CC(C)C)NC(=O)[C@H](CCN)NC(=O)[C@H](CCN)NC(=O)[C@H](Cc2ccccc2)NC(=O)[C@@H](CC(C)C)NC(=O)[C@H](CCN)NC1=O
2. CCCCCCCCCC(=O)N[C@H](CCN)C(=O)N[C@H]1CCCNC(=O)[C@H]([C@@H](C)O)NC(=O)[C@H](CCN)NC(=O)[C@H](CCN)NC(=O)[C@H](CC(C)C)NC(=O)[C@@H](CC(C)C)NC(=O)[C@H](CCN)NC1=O

Given back:
[18.5, 158]

###

experiment: Cytotoxicity against human HK-2 cells assessed as inhibition of cell growth incubated for 72 hrs by CCK-8 assay; format: toxicity, cell-based
Bridge positions count the residues as written; N and C are the ends. Square brackets hold non-standard residues; d marks the D form. Peptide text beside a SMILES is read from it. * marks the point of attachment. Decanoyl(3R-OH) = CCCCCCC[C@@H](O)CC(=O)*; dDab = NCC[C@@H](N)C(=O)O; Dab = NCC[C@H](N)C(=O)O
What IC50 at 72 h was measured for each of the following?
One number for each entry, in µg/mL.

Examples with answers:
| COMPOUND | MEASURED ENDPOINT | OBSERVED RESULT |
| --- | --- | --- |
| CCCCCCC[C@@H](O)CC(=O)N[C@H](CCN)C(=O)N[C@H]1CCNC(=O)[C@H](CC(C)C)NC(=O)[C@H](CCN)NC(=O)[C@H](CCN)NC(=O)[C@H](CC(C)C)NC(=O)[C@@H](Cc2ccccc2)NC(=O)[C@H](CCN)NC1=O ({Decanoyl(3R-OH)}-[dDab][Dab][Dab][dF]L[Dab][Dab]L; lactam 2-C) | IC50 at 72 h | 14.2 |
| CCCCCCCCCC(=O)N[C@H](CCN)C(=O)N[C@H]1CCNC(=O)[C@H](CC(C)C)NC(=O)[C@H](CCN)NC(=O)[C@H](CCN)NC(=O)[C@H](CC(C)C)NC(=O)[C@@H](CC(C)C)NC(=O)[C@H](CCN)NC1=O | IC50 at 72 h | 53.5 |
| CCCCCCCCCC(=O)N[C@H](CCN)C(=O)N[C@H]1CCNC(=O)[C@H]([C@@H](C)O)NC(=O)[C@H](CCN)NC(=O)[C@H](CCN)NC(=O)[C@H](CC(C)C)NC(=O)[C@@H](Cc2ccc(C)cc2)NC(=O)[C@H](CCN)NC1=O | IC50 at 72 h | 71.6 |
| CCCCCCC[C@@H](O)CC(=O)N[C@H](CCN)C(=O)N[C@H]1CCNC(=O)[C@H]([C@@H](C)O)NC(=O)[C@H](CCN)NC(=O)[C@H](CCN)NC(=O)[C@H](CC(C)C)NC(=O)[C@@H](CC(C)C)NC(=O)[C@H](CCN)NC1=O | IC50 at 72 h | 206 |
| CCCCCCCCCC(=O)N[C@H](CCN)C(=O)N[C@H]1CCNC(=O)[C@H]([C@@H](C)O)NC(=O)[C@H](CCN)NC(=O)[C@H](CCN)NC(=O)[C@H](CC(C)C)NC(=O)[C@@H](CC(C)C)NC(=O)[C@H](CCCN)NC1=O | IC50 at 72 h | 277 |
| CCCCCCCCCC(=O)N[C@H](CCN)C(=O)N[C@H]1CCNC(=O)[C@H]([C@@H](C)O)NC(=O)[C@H](CCN)NC(=O)[C@H](CCN)NC(=O)[C@H](CC(C)C)NC(=O)[C@@H](CC(C)C)NC(=O)[C@H](CCCCN)NC1=O | IC50 at 72 h | 196 |

Asked: Can you share its IC50 at 72 h? I mean this compound: "CCCCCCC[C@@H](O)CC(=O)N[C@H](CCN)C(=O)N[C@H]1CCNC(=O)[C@H](CC(C)C)NC(=O)[C@H](CCN)NC(=O)[C@H](CCN)NC(=O)[C@H](Cc2ccccc2)NC(=O)[C@@H](CC(C)C)NC(=O)[C@H](CCN)NC1=O"
Given back: 16.1

###

experiment: Cytotoxicity against human HK-2 cells assessed as inhibition of cell growth incubated for 72 hrs by CCK-8 assay; format: toxicity, cell-based
What IC50 at 72 h was measured for each of the following?
Note: state the figure and append the unit.

Hi! Can you tell me IC50 at 72 h for each of these compounds?
1. CCCCCCCCCC(=O)N[C@@H](C(=O)N[C@H]1CCNC(=O)[C@H]([C@@H](C)O)NC(=O)[C@H](CCN)NC(=O)[C@H](CCN)NC(=O)[C@H](CC(C)C)NC(=O)[C@@H](CC(C)C)NC(=O)[C@H](CCN)NC1=O)[C@H](C)O
2. CCCCCCCCCC(=O)N[C@H](CCN)C(=O)N[C@H]1CCNC(=O)[C@H](CC(C)C)NC(=O)[C@H](CCN)NC(=O)[C@H](CCN)NC(=O)[C@H](Cc2ccccc2)NC(=O)[C@@H](Cc2ccccc2)NC(=O)[C@H](CCN)NC1=O

Given back:
240 µg/mL
32.2 µg/mL

###

test: Cytotoxicity against human HK-2 cells assessed as inhibition of cell growth incubated for 72 hrs by CCK-8 assay; type: toxicity, cell-based
MEASURED ENDPOINT: IC50 at 72 h (µg/mL)
Numbers only, in µg/mL.

Examples with answers:
| SMILES ENTRY | VALUE UNIT | IC50 at 72 h |
| --- | --- | --- |
| CCCCCCCCCC(=O)N[C@H](CCN)C(=O)N[C@H]1CCNC(=O)[C@H]([C@@H](C)O)NC(=O)[C@H](CCN)NC(=O)[C@H](CCN)NC(=O)[C@H](CC(C)C)NC(=O)[C@@H](Cc2ccc(C(C)(C)C)cc2)NC(=O)[C@H](CCN)NC1=O | µg/mL | 15.9 |
| CCCCCCCCCC(=O)N[C@H](CCN)C(=O)N[C@H]1CCNC(=O)[C@H]([C@@H](C)O)NC(=O)[C@H](CCN)NC(=O)[C@H](CCN)NC(=O)[C@H](CCCCCCCC)NC(=O)[C@@H](CC(C)C)NC(=O)[C@H](CCN)NC1=O | µg/mL | 9.1 |

Hi! Can you tell me IC50 at 72 h for each of these compounds?
1. CCCCCCC[C@@H](O)CC(=O)N[C@H](CO)C(=O)N[C@H](CCN)C(=O)N[C@H]1CCNC(=O)[C@H](CC(C)C)NC(=O)[C@H](CCN)NC(=O)[C@H](CCN)NC(=O)[C@H](Cc2ccccc2)NC(=O)[C@@H](CC(C)C)NC(=O)[C@H](CCN)NC1=O
2. CCCCCCCCCC(=O)N[C@H](CCN)C(=O)N[C@H]1CCNC(=O)[C@H]([C@@H](C)O)NC(=O)[C@H](CCN)NC(=O)[C@H](CCN)NC(=O)[C@H](CC(C)C)NC(=O)[C@@H](Cc2ccc(Cl)cc2)NC(=O)[C@H](CCN)NC1=O

Given back:
55.4
48.1
